All values here come from patent US20250289789A1.

target: CDK1-NanoLuc fusion with CCNB1 in 293T or 293 cells (Homo sapiens, UniProt P06493); construct: host or cells: 293T (ATCC CRL-3216) or 293 (ATCC CRL-1573); assay: NanoBRET Target Engagement (TE) Intracellular Kinase Assay, CDK1/CCNB1; assay type: cell-based; conditions: NanoBRET-CDK1/B1 IC50, NanoBRET TE intracellular kinase assay, 2-hour incubation
Sequence (P06493 whole entry, the tested form may be a part): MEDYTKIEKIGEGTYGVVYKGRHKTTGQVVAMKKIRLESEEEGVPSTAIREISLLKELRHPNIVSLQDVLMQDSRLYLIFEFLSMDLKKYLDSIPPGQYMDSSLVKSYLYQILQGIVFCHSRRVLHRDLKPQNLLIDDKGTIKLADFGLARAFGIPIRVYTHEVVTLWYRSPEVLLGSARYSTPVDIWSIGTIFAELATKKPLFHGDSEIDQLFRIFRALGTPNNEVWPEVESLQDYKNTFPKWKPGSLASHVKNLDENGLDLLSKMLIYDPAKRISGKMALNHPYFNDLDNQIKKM
Sequence (P14635 whole entry partner, the tested form may be a part): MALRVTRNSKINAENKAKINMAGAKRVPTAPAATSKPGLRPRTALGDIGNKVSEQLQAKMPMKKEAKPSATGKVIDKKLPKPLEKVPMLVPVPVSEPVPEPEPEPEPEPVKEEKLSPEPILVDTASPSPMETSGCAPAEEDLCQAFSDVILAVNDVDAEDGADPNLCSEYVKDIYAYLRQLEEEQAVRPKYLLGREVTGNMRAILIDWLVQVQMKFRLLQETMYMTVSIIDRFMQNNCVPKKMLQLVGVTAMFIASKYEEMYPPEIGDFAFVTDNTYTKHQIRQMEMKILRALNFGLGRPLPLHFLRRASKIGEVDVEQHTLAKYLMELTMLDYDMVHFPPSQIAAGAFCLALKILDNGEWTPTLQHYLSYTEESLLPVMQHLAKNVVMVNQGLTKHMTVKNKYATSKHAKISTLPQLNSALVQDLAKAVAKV
readout.type: IC50 (nM)
Reply numerically in nM, unit not repeated.

Input line: # query: IC50 | item COc1cc(O)c(C=O)c(OCC(=O)Nc2cc([C@H]3CC[C@@H](OC(=O)N4C5CCC4COC5)C3)[nH]n2)c1 | system: CDK1-NanoLuc fusion with CCNB1 in 293T or 293 cells (Homo sapiens, UniProt P06493)
Output line: 6.54
